- Test system: barnyardgrass
- test summary: Test A pre-/postemergence herbicide test
- Type: in vivo, Echinochloa crus-galli
- measurement parameters: Postemergence, 125 g ai/ha; 0 to 100 scale, 0 no effect, 100 complete control
endpoint name: Plant response rating, Barnyardgrass
// return just the number, without any unit appended

Example entries and their recorded answers appear below.
[
  {
    "compound": "COc1cc(C2CNC(=O)C2C(=O)Nc2ccccc2Cl)ccc1F (racemic)",
    "endpoint name": "Plant response rating, Barnyardgrass",
    "obs value": 30
  },
  {
    "compound": "O=C1NCC(c2ccc(F)c(C(F)(F)F)c2)C1C(=O)Nc1ccccc1F (racemic)",
    "endpoint name": "Plant response rating, Barnyardgrass",
    "obs value": 80
  }
]

Lab note: O=C1NCC(c2ccc(F)c(F)c2)C1C(=O)Nc1ccccc1Br (stereo not drawn) gave Plant response rating, Barnyardgrass of 30

The reported value for O=C1NCC(c2ccc(F)c(C(F)(F)F)c2)C1C(=O)Nc1ccccc1C(F)(F)F (racemic) in terms of Plant response rating, Barnyardgrass is 50

So, O=C1NCC(c2ccc(Cl)nc2)C1C(=O)Nc1ccccc1C(F)(F)F (stereo not drawn) ? Its Plant response rating, Barnyardgrass was 0

The recorded Plant response rating, Barnyardgrass for O=C1NCC(c2ccc3c(c2)OC(F)(F)O3)C1C(=O)Nc1cccc(F)c1F (stereo not drawn) is 70

Just so you know, measured Plant response rating, Barnyardgrass for O=C1NCC(c2ccc(F)c(F)c2)C1C(=O)Nc1cccc(F)c1C(F)(F)F (stereo not drawn) came out at 40

What the record says about O=C1NCC(c2ccc(Cl)c(F)c2)C1C(=O)Nc1ccccc1F (stereo not drawn) : Plant response rating, Barnyardgrass is 30

Looking up O=C1NCC(c2ccccc2)C1(Br)C(=O)Nc1ccc(Br)cc1F (stereo not drawn) , I found its Plant response rating, Barnyardgrass recorded as 0
